- System: Clostridium sporogenes DSM 1664
- PROTOCOL_SUMMARY: growth (OD595) fold change vs plate DMSO controls (fold change (ratio)); higher = more growth
- CONDITIONS: incubation time: 27 h, anaerobic, 37 °C
Counter-ions that a name gives are not always drawn.
VALUE_KIND: growth

**Q:** I'd like to know its growth. The molecule in question is Nc1nc(=O)c2c([nH]1)NC[C@@H](CNc1ccc(C(=O)N[C@@H](CCC(=O)O)C(=O)O)cc1)N2C=O [Folinic acid calcium salt] (20 µM)
**A:** 0.975

---

- Test system: Ruminococcus gnavus DSM 108212
- PROTOCOL_SUMMARY: fold change of 2-Phenylethylamine concentration vs plate DMSO controls (fold change (ratio)); higher = more amine produced, active = hit call of the paper (significant change in both replicates, either direction)
- CONDITIONS: incubation time: 27 h, anaerobic, 37 °C
Counter-ions that a name gives are not always drawn.
Response key: YES means fold change of 2-Phenylethylamine concentration >= 0.9; NO means fold change of 2-Phenylethylamine concentration < 0.9.

| COMPOUND | CATEGORY |
| --- | --- |
| CC[C@H]1OC(=O)[C@H](C)[C@@H](O[C@H]2C[C@@](C)(OC)[C@@H](O)[C@H](C)O2)[C@H](C)[C@@H](O[C@@H]2O[C@H](C)C[C@H](N(C)C)[C@H]2O)[C@](C)(O)C[C@@H](C)/C(=N\OCOCCOC)[C@H](C)[C@@H](O)[C@]1(C)O [Roxithromycin] (20 µM) | NO |
| CC(=O)O[C@]1(C(C)=O)CC[C@H]2[C@@H]3C=C(Cl)C4=CC(=O)[C@@H]5C[C@@H]5[C@]4(C)[C@H]3CC[C@@]21C [Cyproterone acetate] (20 µM) | YES |
| O=C(O)c1cc(=O)c2c(OCC(O)COc3cccc4oc(C(=O)O)cc(=O)c34)cccc2o1 [Cromolyn disodium salt] (20 µM) | YES |
| CC1(C)S[C@@H]2[C@H](NC(=O)C(C(=O)O)c3ccccc3)C(=O)N2[C@H]1C(=O)O (stereo partly drawn) [Carbenicillin disodium salt] (20 µM) | NO |
| CCN(CC)C(=O)c1cccnc1 [Nikethamide] (20 µM) | YES |
| CO[C@@H]1[C@@H](O[C@@H]2O[C@H](C)[C@@H](O[C@H]3C[C@@](C)(O)[C@@H](O)[C@H](C)O3)[C@H](N(C)C)[C@H]2O)[C@@H](CC=O)C[C@@H](C)[C@@H](O[C@H]2CC[C@H](N(C)C)[C@@H](C)O2)/C=C/C=C/C[C@@H](C)OC(=O)C[C@H]1OC(C)=O [Acetyl spiramycin] (20 µM) | NO |
| CCCc1cc(C(N)=S)ccn1 [Prothionamide] (20 µM) | YES |
| CCc1nn(CCCN2CCN(c3cccc(Cl)c3)CC2)c(=O)n1CCOc1ccccc1 [Nefazodone hydrochloride] (20 µM) | NO |

**Q:** # check: fold change of 2-Phenylethylamine concentration of CN(C)CC/C=C1/c2ccccc2Sc2ccc(Cl)cc21 [Chlorprothixene hydrochloride] (20 µM) is greater than or equal to 0.9
**A:** YES

**Q:** # check: fold change of 2-Phenylethylamine concentration of CC(=O)Oc1c(C)cccc1C(=O)O [Cresopirine] (20 µM) is greater than or equal to 0.9
**A:** YES

**Q:** # check: fold change of 2-Phenylethylamine concentration of COc1ccc2c(c1)C(=O)N(CCc1ccc(S(=O)(=O)NC(=O)NC3CCCCC3)cc1)C(=O)C2(C)C [Gliquidone] (20 µM) is greater than or equal to 0.9
**A:** YES

**Q:** # check: fold change of 2-Phenylethylamine concentration of Clc1ccc2c(c1)C(N1CCNCC1)=Nc1ccccc1O2 [Amoxapine] (20 µM) is greater than or equal to 0.9
**A:** YES
